Where do these numbers come from? They come from patent US20250304717A1.

Tested on: SKBR3 cells
Assay: Anti-tumor cell proliferation activity of compound of formula (D-H), Cell-Titer Glo, SKBR3
Assay type: cell-based, human
Details: read-out: SKBR3 Antiproliferative activity IC50; SKBR3 cells, 5 days
quantity: IC50 (nM)
Numeric only. Scale: nM

Look up IC50: CC[C@@]1(O)C(=O)OCc2c1cc1n(c2=O)Cc2c-1nc1cc3c(cc1c2CNC(=O)C(O)C1CC1)OCO3 (stereo partly shown) [Compound 14-P2]
3.5
